assayProtocol: Stability in human cryopreserved hepatocytes without and with cimetidine or furafylline (Example 5)
Format: in vitro ADME
appliedConditions: human, cryopreserved hepatocytes (suspension), substrate 1 μM, no inhibitor; read-out: t1/2
The entries below come with measured half-life at 1 μM values attached.

Record excerpt, results attached:
- compound: "CCOc1ccc(NC(C)=O)cc1 [Phenacetin]"
  half-life at 1 μM: "12.9 min"
- compound: "O=c1ccc2ccc(O)cc2o1 [Umbelliferone]"
  half-life at 1 μM: "7.95 min"

Now take the following compound into account.
query: Retrieve half-life at 1 μM measured for COC(=O)Nc1nc2ccc(C(=O)c3ccccc3)cc2[nH]1 [Mebendazole] and print it.
result: 104 min
